Just for reference, patent US20140213531A1 is where these values come from.

Attribute: IC50
Biological target: T1, Elastase from human neutrophils (human, UniProt P08246 30-247, limits assumed)
T1 sequence (looked up): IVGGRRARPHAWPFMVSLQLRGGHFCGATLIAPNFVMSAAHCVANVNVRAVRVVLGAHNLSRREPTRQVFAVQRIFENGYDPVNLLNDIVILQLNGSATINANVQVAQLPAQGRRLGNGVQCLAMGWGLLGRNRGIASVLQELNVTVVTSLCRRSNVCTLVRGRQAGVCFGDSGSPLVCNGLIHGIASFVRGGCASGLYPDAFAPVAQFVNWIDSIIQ
Test: cell-based or functional assay
Bridges are numbered along the chain shown (N, C = ends). [ ]: non-standard residue; d: D form. Pro(5R-Ph) = O=C(O)[C@@H]1CC[C@H](c2ccccc2)N1

ICTXSDPPICR (HELM PEPTIDE1{I.C.T.[Nle].S.D.P.P.I.C.R.[dP].P}$PEPTIDE1,PEPTIDE1,2:R3-10:R3|PEPTIDE1,PEPTIDE1,1:R1-13:R2$$$V2.0; SMILES CCCC[C@@H]1NC(=O)[C@H]([C@@H](C)O)NC(=O)[C@@H]2CSSC[C@H](NC(=O)[C@H]([C@@H](C)CC)NC(=O)[C@@H]3CCCN3C(=O)[C@@H]3CCCN3C(=O)[C@H](CC(=O)O)NC(=O)[C@H](CO)NC1=O)C(=O)N[C@@H](CCCNC(=N)N)C(=O)N1CCC[C@@H]1C(=O)N1CCC[C@H]1C(=O)N[C@@H]([C@@H](C)CC)C(=O)N2) [Example 59] | > 100000 nmol
ICTASLPPQCY (HELM PEPTIDE1{I.C.T.A.S.L.P.P.Q.C.Y.[dP].P}$PEPTIDE1,PEPTIDE1,2:R3-10:R3|PEPTIDE1,PEPTIDE1,1:R1-13:R2$$$V2.0; SMILES CC[C@H](C)[C@@H]1NC(=O)[C@@H]2CCCN2C(=O)[C@H]2CCCN2C(=O)[C@H](Cc2ccc(O)cc2)NC(=O)[C@@H]2CSSC[C@H](NC1=O)C(=O)N[C@@H]([C@@H](C)O)C(=O)N[C@@H](C)C(=O)N[C@@H](CO)C(=O)N[C@@H](CC(C)C)C(=O)N1CCC[C@H]1C(=O)N1CCC[C@H]1C(=O)N[C@@H](CCC(N)=O)C(=O)N2) [Example 76] | 71 nmol
ICTXSDPPICR (HELM PEPTIDE1{I.C.T.[Nle].S.D.P.P.I.C.R.[dP].P}$PEPTIDE1,PEPTIDE1,2:R3-10:R3|PEPTIDE1,PEPTIDE1,1:R1-13:R2$$$V2.0; SMILES CCCC[C@@H]1NC(=O)[C@H]([C@@H](C)O)NC(=O)[C@@H]2CSSC[C@H](NC(=O)[C@H]([C@@H](C)CC)NC(=O)[C@@H]3CCCN3C(=O)[C@@H]3CCCN3C(=O)[C@H](CC(=O)O)NC(=O)[C@H](CO)NC1=O)C(=O)N[C@@H](CCCNC(=N)N)C(=O)N1CCC[C@@H]1C(=O)N1CCC[C@H]1C(=O)N[C@@H]([C@@H](C)CC)C(=O)N2) [Example 22] | > 100000 nmol
XCTASXPPQCY (HELM PEPTIDE1{[Nle].C.T.A.S.[Nle].P.P.Q.C.Y.[dP].P}$PEPTIDE1,PEPTIDE1,2:R3-10:R3|PEPTIDE1,PEPTIDE1,1:R1-13:R2$$$V2.0; SMILES CCCC[C@@H]1NC(=O)[C@@H]2CCCN2C(=O)[C@H]2CCCN2C(=O)[C@H](Cc2ccc(O)cc2)NC(=O)[C@@H]2CSSC[C@H](NC1=O)C(=O)N[C@@H]([C@@H](C)O)C(=O)N[C@@H](C)C(=O)N[C@@H](CO)C(=O)N[C@@H](CCCC)C(=O)N1CCC[C@H]1C(=O)N1CCC[C@H]1C(=O)N[C@@H](CCC(N)=O)C(=O)N2) [Example 79] | 66 nmol
FCTKSDPPXCS (HELM PEPTIDE1{F.C.T.K.S.D.P.P.[Nle].C.S.[dP].P}$PEPTIDE1,PEPTIDE1,2:R3-10:R3|PEPTIDE1,PEPTIDE1,1:R1-13:R2$$$V2.0; SMILES CCCC[C@@H]1NC(=O)[C@@H]2CCCN2C(=O)[C@@H]2CCCN2C(=O)[C@H](CC(=O)O)NC(=O)[C@H](CO)NC(=O)[C@H](CCCCN)NC(=O)[C@H]([C@@H](C)O)NC(=O)[C@@H]2CSSC[C@H](NC1=O)C(=O)N[C@@H](CO)C(=O)N1CCC[C@@H]1C(=O)N1CCC[C@H]1C(=O)N[C@@H](Cc1ccccc1)C(=O)N2) [Example 15] | > 100000 nmol
cyclo(ICTKSDPAICR[dP]P) (disulfide 2-10) [Example 52] | > 100000 nmol
cyclo(ICTKSDPAICR[dP]P) (disulfide 2-10) [Example 14] | > 100000 nmol
cyclo(FCTKSDPPICS[dP][Pro(5R-Ph)]) (disulfide 2-10) [Example 48] | > 100000 nmol

Task item: What value of measured IC50 is listed for ICTKSDPPXCR (HELM PEPTIDE1{I.C.T.K.S.D.P.P.[Cha].C.R.[dP].P}$PEPTIDE1,PEPTIDE1,2:R3-10:R3|PEPTIDE1,PEPTIDE1,1:R1-13:R2$$$V2.0; SMILES CC[C@H](C)[C@@H]1NC(=O)[C@@H]2CCCN2C(=O)[C@H]2CCCN2C(=O)[C@H](CCCNC(=N)N)NC(=O)[C@@H]2CSSC[C@H](NC1=O)C(=O)N[C@@H]([C@@H](C)O)C(=O)N[C@@H](CCCCN)C(=O)N[C@@H](CO)C(=O)N[C@@H](CC(=O)O)C(=O)N1CCC[C@H]1C(=O)N1CCC[C@H]1C(=O)N[C@@H](CC1CCCCC1)C(=O)N2) [Example 20] ?
Reply: > 100000 nmol
